SYSTEM UNDER TEST: 5-hydroxytryptamine receptor 7 (Homo sapiens) (UniProt P34969)
Sequence (P34969 whole entry): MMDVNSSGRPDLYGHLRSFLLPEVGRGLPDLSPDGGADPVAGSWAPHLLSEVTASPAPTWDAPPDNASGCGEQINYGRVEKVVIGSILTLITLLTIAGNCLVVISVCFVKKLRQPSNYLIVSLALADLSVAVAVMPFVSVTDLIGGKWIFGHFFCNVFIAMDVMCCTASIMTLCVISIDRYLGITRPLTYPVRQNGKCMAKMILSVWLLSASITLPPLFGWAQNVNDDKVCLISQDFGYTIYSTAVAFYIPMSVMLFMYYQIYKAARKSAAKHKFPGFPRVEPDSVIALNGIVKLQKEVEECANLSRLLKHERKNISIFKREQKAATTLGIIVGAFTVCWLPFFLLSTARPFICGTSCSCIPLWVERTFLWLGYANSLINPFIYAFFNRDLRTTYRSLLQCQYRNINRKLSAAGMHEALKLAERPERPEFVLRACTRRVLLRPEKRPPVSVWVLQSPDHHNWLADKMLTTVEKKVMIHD
MEASUREMENT NOTES: Displacement of [3H]LSD from 5HT7 receptor (unknown origin) at 10 uM
Form field: inhibition (one value per entry).
PROPERTY: inhibition (%)

{"columns": ["COMPOUND", "SYSTEM UNDER TEST", "OBSERVED MEASUREMENT"],
 "data": [
  ["COc1cc2c3c(c1OCC1CC1)-c1cc4c(cc1CC3N(C)CC2c1ccccc1)OCO4 (centres undefined)", "5-hydroxytryptamine receptor 7 (Homo sapiens) (UniProt P34969)", 6.9],
  ["COc1cc2c3c(c1O)-c1cc4c(cc1CC3N(C)CC2c1ccccc1)OCO4 (centres undefined)", "5-hydroxytryptamine receptor 7 (Homo sapiens) (UniProt P34969)", 31.3],
  ["COc1cc2c3c(c1OC)-c1cc4c(cc1CC3N(C)CC2c1ccccc1)OCO4 (centres undefined)", "5-hydroxytryptamine receptor 7 (Homo sapiens) (UniProt P34969)", 36.1],
  ["COc1cc2c3c(c1OC)-c1cc4c(cc1CC3N(CC1CC1)CC2c1ccccc1)OCO4 (centres undefined)", "5-hydroxytryptamine receptor 7 (Homo sapiens) (UniProt P34969)", 18.3]
]}
